ASSAY DETAILS: Pharmacokinetics study of KPT-335 in cats (i.v. injection, p.o. capsules and tablets; UPLC-MS/MS, non-compartmental analysis)
Format: in vivo
CONDITIONS USED: both sexes, cat, plasma, po, 0.2 mg/kg, cats, capsule p.o. 0.2 mg/kg BW, 0.5 h, mean
RESULT TYPE: concentration at 0.5 h

# ITEM SMILES, VALUE OBSERVED
data = [
    ("O=C(/C=C\\n1cnc(-c2cc(C(F)(F)F)cc(C(F)(F)F)c2)n1)NNc1ccccn1", "13.6 ng/mL"),
]

====

ASSAY DETAILS: Pharmacokinetics study of KPT-335 in cats (i.v. injection, p.o. capsules and tablets; UPLC-MS/MS, non-compartmental analysis)
Format: in vivo
CONDITIONS USED: both sexes, cat, plasma, po, 2 mg/kg, cats, tablet p.o. 2 mg/kg BW after feeding, 1 h, mean; read-out: Plasma concentration Mean

# ITEM SMILES, concentration at 1 h / ng/mL
data = [
    ("O=C(/C=C\\n1cnc(-c2cc(C(F)(F)F)cc(C(F)(F)F)c2)n1)NNc1ccccn1", 464),
]

====

ASSAY DETAILS: Pharmacokinetics study of KPT-335 in cats (i.v. injection, p.o. capsules and tablets; UPLC-MS/MS, non-compartmental analysis)
Assay type: in vivo
CONDITIONS USED: both sexes, plasma, po, 1 mg/kg, cats, p.o., Tablet, Feeding, 1 mg/kg BW; read-out: AUCINF_obs

# COMPOUND, AUC(0-inf)
rows = [
    ("O=C(/C=C\\n1cnc(-c2cc(C(F)(F)F)cc(C(F)(F)F)c2)n1)NNc1ccccn1 [KPT-335]", "2270 ng·h/mL"),
]

====

ASSAY DETAILS: Pharmacokinetics study of KPT-335 in cats (i.v. injection, p.o. capsules and tablets; UPLC-MS/MS, non-compartmental analysis)
Assay type: in vivo
CONDITIONS USED: female, plasma, po, 2 mg/kg, female cats, p.o., Tablet, Feeding, 2 mg/kg BW; read-out: AUClast Value females
RESULT TYPE: AUC(0-t) (ng·h/mL)

# COMPOUND, VALUE OBSERVED
data = [
    ("O=C(/C=C\\n1cnc(-c2cc(C(F)(F)F)cc(C(F)(F)F)c2)n1)NNc1ccccn1 [KPT-335]", 2840),
]

====

ASSAY DETAILS: Pharmacokinetics study of KPT-335 in cats (i.v. injection, p.o. capsules and tablets; UPLC-MS/MS, non-compartmental analysis)
Format: in vivo
CONDITIONS USED: male, plasma, iv, 1 mg/kg, male cats, i.v., Injection, 1 mg/kg BW; read-out: Cmax Value males
RESULT TYPE: Cmax (ng/mL)

# ITEM SMILES, VALUE OBSERVED
data = [
    ("O=C(/C=C\\n1cnc(-c2cc(C(F)(F)F)cc(C(F)(F)F)c2)n1)NNc1ccccn1", 816),
]

====

ASSAY DETAILS: Pharmacokinetics study of KPT-335 in cats (i.v. injection, p.o. capsules and tablets; UPLC-MS/MS, non-compartmental analysis)
Format: in vivo
CONDITIONS USED: male, plasma, po, 2 mg/kg, male cats, p.o., Tablet, Feeding, 2 mg/kg BW; read-out: Cmax Value males
RESULT TYPE: Cmax

# ITEM SMILES, VALUE OBSERVED
measured = [
    ("O=C(/C=C\\n1cnc(-c2cc(C(F)(F)F)cc(C(F)(F)F)c2)n1)NNc1ccccn1", "580 ng/mL"),
]

====

ASSAY DETAILS: Pharmacokinetics study of KPT-335 in cats (i.v. injection, p.o. capsules and tablets; UPLC-MS/MS, non-compartmental analysis)
Format: in vivo
CONDITIONS USED: both sexes, cat, plasma, po, 1 mg/kg, cats, capsule p.o. 1 mg/kg BW, 0.167 h, mean; read-out: Plasma concentration Mean
Protocol: In this study, a parallel trial design was employed, 42 adult domestic cats (21 males and 21 females), aged 1 to 2 years and weighing 2.5 ± 0.25 kg. Cats were grouped by random number, with half male and female in each group, and all cats were determined to be systemically healthy during an initial screening visit 1 week prior to the experiment. They were acclimatized to the laboratory environment for 7 days before the study commenced. […]

# ITEM SMILES, concentration at 0.167 h
rows = [
    ("O=C(/C=C\\n1cnc(-c2cc(C(F)(F)F)cc(C(F)(F)F)c2)n1)NNc1ccccn1", "4.97 ng/mL"),
]

====

ASSAY DETAILS: Pharmacokinetics study of KPT-335 in cats (i.v. injection, p.o. capsules and tablets; UPLC-MS/MS, non-compartmental analysis)
Type: in vivo
CONDITIONS USED: both sexes, plasma, po, 2 mg/kg, cats, p.o., Tablet, Feeding, 2 mg/kg BW; read-out: AUCINF_obs
RESULT TYPE: AUC(0-inf) (ng·h/mL)

# ITEM SMILES, VALUE OBSERVED
measured = [
    ("O=C(/C=C\\n1cnc(-c2cc(C(F)(F)F)cc(C(F)(F)F)c2)n1)NNc1ccccn1", 3010),
]

====

ASSAY DETAILS: Pharmacokinetics study of KPT-335 in cats (i.v. injection, p.o. capsules and tablets; UPLC-MS/MS, non-compartmental analysis)
Format: in vivo
CONDITIONS USED: both sexes, plasma, po, 1 mg/kg, cats, p.o., Tablet, Feeding, 1 mg/kg BW; read-out: F (absolute bioavailability)

# ITEM SMILES, bioavailability (%)
measured = [
    ("O=C(/C=C\\n1cnc(-c2cc(C(F)(F)F)cc(C(F)(F)F)c2)n1)NNc1ccccn1", 71),
]

====

ASSAY DETAILS: Pharmacokinetics study of KPT-335 in cats (i.v. injection, p.o. capsules and tablets; UPLC-MS/MS, non-compartmental analysis)
Format: in vivo
CONDITIONS USED: both sexes, cat, plasma, iv, 1 mg/kg, cats, i.v. 1 mg/kg BW, 2 h, mean; read-out: Plasma concentration Mean
RESULT TYPE: concentration at 2 h (ng/mL)

# MOLECULE, RESULT TYPE, VALUE OBSERVED
measured = [
    ("O=C(/C=C\\n1cnc(-c2cc(C(F)(F)F)cc(C(F)(F)F)c2)n1)NNc1ccccn1 [KPT-335]", "concentration at 2 h", 441),
]

====

ASSAY DETAILS: Pharmacokinetics study of KPT-335 in cats (i.v. injection, p.o. capsules and tablets; UPLC-MS/MS, non-compartmental analysis)
Format: in vivo
CONDITIONS USED: both sexes, cat, plasma, po, 1 mg/kg, cats, tablet p.o. 1 mg/kg BW after feeding, 0.33 h, mean
RESULT TYPE: concentration at 0.33 h (ng/mL)

# COMPOUND, VALUE OBSERVED
records = [
    ("O=C(/C=C\\n1cnc(-c2cc(C(F)(F)F)cc(C(F)(F)F)c2)n1)NNc1ccccn1 [KPT-335]", 79.1),
]

====

ASSAY DETAILS: Pharmacokinetics study of KPT-335 in cats (i.v. injection, p.o. capsules and tablets; UPLC-MS/MS, non-compartmental analysis)
Format: in vivo
CONDITIONS USED: both sexes, plasma, po, 1 mg/kg, cats, p.o., Tablet, Fasting, 1 mg/kg BW; read-out: Lambda_z (converted)
RESULT TYPE: k el (s⁻¹)

# ITEM SMILES, RESULT TYPE, VALUE OBSERVED
measured = [
    ("O=C(/C=C\\n1cnc(-c2cc(C(F)(F)F)cc(C(F)(F)F)c2)n1)NNc1ccccn1", "k el", "3.61e-05"),
]

====

ASSAY DETAILS: Pharmacokinetics study of KPT-335 in cats (i.v. injection, p.o. capsules and tablets; UPLC-MS/MS, non-compartmental analysis)
Type: in vivo
CONDITIONS USED: both sexes, cat, plasma, po, 1 mg/kg, cats, tablet p.o. 1 mg/kg BW after feeding, 24 h, mean
Description: In this study, a parallel trial design was employed, 42 adult domestic cats (21 males and 21 females), aged 1 to 2 years and weighing 2.5 ± 0.25 kg. Cats were grouped by random number, with half male and female in each group, and all cats were determined to be systemically healthy during an initial screening visit 1 week prior to the experiment. They were acclimatized to the laboratory environment for 7 days before the study commenced. […]

# ITEM SMILES, concentration at 24 h / ng/mL
measured = [
    ("O=C(/C=C\\n1cnc(-c2cc(C(F)(F)F)cc(C(F)(F)F)c2)n1)NNc1ccccn1", 7.74),
]

====

ASSAY DETAILS: Pharmacokinetics study of KPT-335 in cats (i.v. injection, p.o. capsules and tablets; UPLC-MS/MS, non-compartmental analysis)
Assay type: in vivo
CONDITIONS USED: both sexes, cat, plasma, po, 2 mg/kg, cats, capsule p.o. 2 mg/kg BW, 0.167 h, mean; read-out: Plasma concentration Mean
Description: In this study, a parallel trial design was employed, 42 adult domestic cats (21 males and 21 females), aged 1 to 2 years and weighing 2.5 ± 0.25 kg. Cats were grouped by random number, with half male and female in each group, and all cats were determined to be systemically healthy during an initial screening visit 1 week prior to the experiment. They were acclimatized to the laboratory environment for 7 days before the study commenced. […]
RESULT TYPE: concentration at 0.167 h (ng/mL)

# ITEM SMILES, VALUE OBSERVED
records = [
    ("O=C(/C=C\\n1cnc(-c2cc(C(F)(F)F)cc(C(F)(F)F)c2)n1)NNc1ccccn1", 0.68),
]
